- Tested on: HepG2
- assay.notes: GSK_TCMDC: Percent inhibition of human HepG2 cell line. Test compounds present at 10uM.
- Type: functional
readout.label: Inhibition (%)
Give bare numbers, in %.

In the examples that follow, each entry is paired with its recorded Inhibition.
CCn1cc(CN2CCCC(C(=O)Nc3ccc(-c4nc5ccccc5[nH]4)cc3)C2)cn1 (stereo not given) ... 8
CC(C)Nc1nc(NCCc2c[nH]cn2)nc(NCc2ccc(Cl)c(Cl)c2)n1 ... 0
Cc1ccccc1C1CCN(c2ccc(C(=O)Nc3ccc(F)cc3)cn2)CC1.O=C(O)C(F)(F)F ... 45
O=C(NC1CC1)c1ccc(N2CCOc3ccc(Cl)cc32)s1 ... 8

// moving on: another record for Inhibition
Quickly give me recorded Inhibition for `CCOC(=O)CNC(=O)c1cc(=O)c2ccccc2o1`
22

---

- Test system: HepG2
- assay.notes: GSK_TCMDC: Percent inhibition of human HepG2 cell line. Test compounds present at 10uM.
- Assay type: functional
Label 1.0 when Inhibition is at or above 20%; anything below gets 0.0.

Could you please find out whether `Cc1cc(-c2ccc(Cl)cc2)c2c(N)c(C(=O)Nc3ccc(F)cc3)sc2n1` has Inhibition that meets 20% or exceeds it?
0.0

Could you please find out whether `Cc1ccc(NC(=O)c2cc(Br)cc(N3CCCN(C)CC3)c2)cc1F.O=C(O)C(F)(F)F` has Inhibition that meets 20% or exceeds it?
0.0

Could you please find out whether `CN(C)CCOc1cc(NC(=O)Nc2ccc(-c3ccncc3)c3ccccc23)ccc1I` has Inhibition that meets 20% or exceeds it?
1.0

---

- Tested on: HepG2
- assay.notes: GSK_TCMDC: Percent inhibition of human HepG2 cell line. Test compounds present at 10uM.
- Assay type: functional
Could you mark each record class 1 if its Inhibition falls strictly under 20%, and class 0 if it equals or exceeds it?

Worked examples follow.
Oc1ccc(Cl)cc1CN1CCC2(CCCN(CC3CCC3)C2)C1 (centres undefined) ... class 1
O=C(Nc1ccc2c(c1)CCN2C1CCN(Cc2ccc(C(F)(F)F)cc2F)C1)c1ccco1 (centres undefined) ... class 1
CC1(C)N=C(N)N=C(N)N1c1ccccc1.Cl ... class 1

Determine if `COc1ccc(-c2cc(-c3nc4cc(CN)ccc4[nH]3)c(=O)n(C)c2)cc1OC` shows Inhibition strictly lower than 20%.
class 1

Determine if `O=C(O)C(F)(F)F.c1cc(-c2ccc(CNCc3ccc(-c4csnn4)cc3)cc2)cc(-c2nc3ccccc3[nH]2)c1` shows Inhibition strictly lower than 20%.
class 0

Determine if `Fc1ccc2[nH]cc(CCNCc3ccc(-c4cccc(-c5nc6ccccc6[nH]5)c4)cc3)c2c1.O=C(O)C(F)(F)F` shows Inhibition strictly lower than 20%.
class 0

Determine if S=C(NN=Cc1ccccn1)NC1CC2C=CC1C2 (centres undefined) shows Inhibition strictly lower than 20%.
class 0

Determine if `Cc1[nH]c(C)c(-c2ccc(-c3ccc(OC(F)(F)F)cc3)nc2)c(=O)c1Br` shows Inhibition strictly lower than 20%.
class 0

Determine if `O=C(Nc1ccc2ccccc2c1)N(CCCn1ccnc1)Cc1csc(-c2ccc(CNCc3ccccc3)cc2)n1.O=C(O)C(F)(F)F` shows Inhibition strictly lower than 20%.
class 1

---

- System: Plasmodium falciparum
- assay.notes: GSK_TCMDC: Inhibition of Plasmodium falciparum Dd2 in whole red blood cells, using parasite LDH activity as an index of growth. Test compounds present at 2uM
- Assay type: functional
I'd be grateful if you could share measured Inhibition for these entries.
Answers are plain numbers, in %.

CN(CCNCc1ccc(-c2cccc(-c3nc4ccccc4[nH]3)c2)cc1)S(C)(=O)=O.O=C(O)C(F)(F)F ... 29
COc1ccc(-c2cc(C(=O)N[C@@H](CC3CCCCC3)C(=O)NC3CCCc4ccccc43)ccc2O)cc1 (some centres undefined) ... 97
COc1cc2nccc(Nc3cc(C)cc(O)c3)c2cc1OC.Cl ... 0
CN(C)CCCNCc1cn(S(=O)(=O)c2ccccc2Cl)c2ccccc12.Cl ... 71

Hey, can you go through the list below and give me Inhibition for every item?
1. CCc1cc(Br)c(CNCCCNc2cc(=O)c3ccccc3[nH]2)s1.Cl
2. COc1ccc2c(=NN=Cc3ccccc3Cl)cc(C)[nH]c2c1
3. COc1ccc2nc(C)cc(N/N=C/c3ccccc3[N+](=O)[O-])c2c1
4. Cc1cc2nc(-c3ccc(C(=O)NCc4ccc(C(C)(C)C)cc4)cc3)[nH]c2cc1C
5. Cc1ccc2[nH]c(-c3ccccc3Nc3ccnc4cc(-c5nccs5)ccc34)nc2c1.Cl
6. Cc1cc(=NN=CC=Cc2ccccc2)c2ccccc2[nH]1
7. C[C@H]1CN(Cc2cccc(-c3cc(CNC(=O)c4cccc(C(=O)c5ccc(Cl)c(Cl)c5)c4)ccc3F)c2)CCN1
8. CC(C)CNCc1cccc(-c2cccc(CN(CCCN3CCN(C)CC3)C(=O)CCC3CCCC3)c2)c1.O=C(O)C(F)(F)F

45
99
99
59
100
69
42
96

---

- System: Plasmodium falciparum
- assay.notes: GSK_TCMDC: Inhibition of Plasmodium falciparum 3D7 in whole red blood cells, using parasite LDH activity as an index of growth. Test compounds present at 2uM
- Type: functional
I'd be grateful if you could share measured Inhibition for these entries.
Give bare numbers, in %.

In the examples that follow, each entry is paired with its recorded Inhibition.
O=c1cc(NCCCNCc2cccc(C(F)(F)F)c2Cl)[nH]c2ccccc12 ... 94
O=C(NCCc1ccccc1)N(Cc1cccc(-c2ccc(CNCc3ccc4c(c3)OCO4)cc2)c1)C1CCN(Cc2ccccc2)CC1.O=C(O)C(F)(F)F ... 94
CC(C)COc1ccc(Cl)cc1Cc1ccc(-c2nc3cc(CCN4CCCC4)ccc3[nH]2)o1.Cl ... 100

Hey, can you go through the list below and give me Inhibition for every item?
1. Cl.c1ccc(Oc2ccc(Nc3ccnc4c(-c5ccccn5)cccc34)cc2)cc1
2. CS(=O)(=O)Nc1cccc(-c2cnc3[nH]cc(-c4ccc(CN)cc4)c3c2)c1
3. CC(C)(C)CC(C)(C)c1ccc(O)c(CNC2CCCCC2)c1.Cl
4. CCOc1ccc2[nH]c(C)cc(=NN=Cc3ccc(Cl)cc3)c2c1
5. Cc1cc2c(/C=C/C(=O)NC3CCC(CCN4CCc5ccc(C#N)cc5CC4)CC3)cccc2[nH]1.Cl (centres undefined)

100
98
98
100
95

---

- Test system: Plasmodium falciparum
- assay.notes: GSK_TCMDC: Inhibition of Plasmodium falciparum Dd2 in whole red blood cells, using parasite LDH activity as an index of growth. Test compounds present at 2uM
- Format: functional
readout.label: Inhibition (%)
Answers are plain numbers, in %.

Cl.c1ccc2c(NCCCCCCCNc3ccnc4ccccc34)ccnc2c1 ... 94

Hey, can you go through the list below and give me Inhibition for every item?
1. CCc1cn2c3c(cc(C(=O)N[C@@H](Cc4cc(F)cc(F)c4)[C@H](O)CNC4CC4)cc13)N(C)S(=O)(=O)CC2.O=CO
2. CC[C@H](C)CNC(=O)c1ccnc(-c2cccc(CN(C)C3CCN(C)CC3)c2)c1.O=C(O)C(F)(F)F
3. CCCCNS(=O)(=O)c1ccc(NC(=O)c2cc([N+](=O)[O-])ccc2Cl)cc1

1: 99; 2: 33; 3: 47

---

I'd be grateful if you could share measured Inhibition for these entries.
- Test system: Plasmodium falciparum
- assay.notes: GSK_TCMDC: Inhibition of Plasmodium falciparum 3D7 in whole red blood cells, using parasite LDH activity as an index of growth. Test compounds present at 2uM
- Assay type: functional
Give bare numbers, in %.

COc1ccc(CNCc2ccc(-c3ccc(-c4nc5ccccc5[nH]4)cc3)cc2)cc1.O=C(O)C(F)(F)F ... 100
CCC(=O)N1CCc2cc(Br)cc(S(=O)(=O)N3CC(C)CC(C)C3)c21 (centres undefined) ... 85
COc1cc2nc(NCCc3ccccc3)nc(NC(C)c3ccccc3)c2cc1OC (centres undefined) ... 99
CNC(=O)COc1cc(C)c(C2CCN(CCCCNC(=O)c3ccc(-c4ccc(C(F)(F)F)cc4)cc3)CC2)cc1C ... 100
CC1CNC(c2cccc(NC(=O)Nc3cccc(C4=NC(C)CN4)c3)c2)=N1.Cl (centres undefined) ... 94
CN1CCN(c2ccc(Nc3c4ccccc4nc4ccccc34)cc2)CC1 ... 100

Hey, can you go through the list below and give me Inhibition for every item?
1. Cc1ccc(-n2nc(-c3ccccc3)c3cc(C(=O)NCCN)sc32)cc1
2. CN(C)CCC(O)(c1ccc(Br)cc1)c1cccnc1 (centres undefined)
3. O=C(Nc1ccc(OC2CCN(Cc3ccc(F)cc3)CC2)c(Cl)c1)c1ccccc1.O=C(O)C(F)(F)F
4. COc1ccccc1CNC(=O)c1nn(-c2ccc(Cl)cc2)c(=O)c2ccccc12
5. NS(=O)(=O)c1cccc(Nc2nc(N[C@@H]3CCNC3)nc3cc[nH]c(=O)c23)c1.O=C(O)C(F)(F)F

92
96
90
100
99

Hey, can you go through the list below and give me Inhibition for every item?
1. CC(C)(CNCCOc1ccc(Cl)cc1)c1nc(-c2ccnc(N)n2)c(-c2ccc(Cl)c(O)c2)[nH]1.Cl
2. Cl.NCC1(c2nc(-c3ccc(Cl)c(O)c3)c(-c3ccncc3)[nH]2)CCCCC1
3. Cl.N=C(N)Nc1ccc(OCCCCCOc2ccc(NC(=N)N)c(Cl)c2)cc1Cl
4. COCCNC(=O)c1ccc(OC2CCN(Cc3ccc(F)c(F)c3)CC2)c(Cl)c1
5. Cc1nc(-c2ccc(-c3ccc(NC(=O)Nc4ccc(I)c(OCCN(C)C)c4)cc3)c(C)c2)no1.Cl
6. CC(=O)Nc1ccc2[nH]cc(C3CCN(CCC4CCN(C(=O)/C=C/c5ccc(Cl)c(Cl)c5)CC4)CC3)c2n1

1. 97
2. 98
3. 92
4. 88
5. 100
6. 100

Hey, can you go through the list below and give me Inhibition for every item?
1. CCN1CCN(C(=O)NC(C(=O)N2CCCC(COc3ccc(Cc4ccccc4)cc3)C2)c2cccs2)C(=O)C1=O (centres undefined)
2. Cc1ccc(C(=O)Nc2ccc(Nc3ccnc4cc(-c5ccccn5)ccc34)cc2O)cc1.Cl

95
100
